Test system: RAW264.7
runDescription: Effect on mouse RAW264.7 cell function assessed as FITC-LPS binding to macrophage after 15 mins by fluorimetry
Type: functional, cell-based
Calls of active or inactive are those of the source. No cut-off for these calls is given here.
Possible outcomes: active, inactive

inputSmiles: CC(C)c1ccc(-c2cc(-c3ccc4c(c3)CCCC4)[nH]c(=O)c2C#N)cc1
discreteLabel: active
--
inputSmiles: CC(C)c1ccc(-c2cc(-c3ccc4c(c3)CCCC4)[nH]c(=S)c2C#N)cc1
discreteLabel: active
--
inputSmiles: CC(C)c1ccc(-c2cc(-c3ccc4c(c3)CCCC4)nc(NCc3ccccc3)c2C#N)cc1
discreteLabel: inactive
--
inputSmiles: COc1ccc(-c2cc(-c3ccc4c(c3)CCCC4)nc(NCc3ccccc3)c2C#N)cc1OC
discreteLabel: inactive
--
inputSmiles: COc1ccc(-c2cc(-c3ccc4c(c3)CCCC4)nc(Cl)c2C#N)cc1OC
discreteLabel: inactive
--
inputSmiles: COc1ccc(-c2cc(-c3ccc4c(c3)CCCC4)nc(OCC(=O)NCc3ccccc3)c2C#N)cc1OC
discreteLabel: inactive
--
inputSmiles: CC(C)c1ccc(-c2cc(-c3ccc4c(c3)CCCC4)nc(Cl)c2C#N)cc1
discreteLabel: inactive
--
inputSmiles: CC(C)c1ccc(-c2cc(-c3ccc4c(c3)CCCC4)nc3[nH]nc(N)c23)cc1
discreteLabel: active
--
inputSmiles: CCOC(=O)COc1nc(-c2ccc3c(c2)CCCC3)cc(-c2ccc(C(C)C)cc2)c1C#N
discreteLabel: active

Data provenance: ChEMBL document CHEMBL1153793
